Taken from patent US8609708B2.

- target_system: CYP2C9 (Homo sapiens (Human), UniProt P11712)
- Sequence (P11712 whole entry): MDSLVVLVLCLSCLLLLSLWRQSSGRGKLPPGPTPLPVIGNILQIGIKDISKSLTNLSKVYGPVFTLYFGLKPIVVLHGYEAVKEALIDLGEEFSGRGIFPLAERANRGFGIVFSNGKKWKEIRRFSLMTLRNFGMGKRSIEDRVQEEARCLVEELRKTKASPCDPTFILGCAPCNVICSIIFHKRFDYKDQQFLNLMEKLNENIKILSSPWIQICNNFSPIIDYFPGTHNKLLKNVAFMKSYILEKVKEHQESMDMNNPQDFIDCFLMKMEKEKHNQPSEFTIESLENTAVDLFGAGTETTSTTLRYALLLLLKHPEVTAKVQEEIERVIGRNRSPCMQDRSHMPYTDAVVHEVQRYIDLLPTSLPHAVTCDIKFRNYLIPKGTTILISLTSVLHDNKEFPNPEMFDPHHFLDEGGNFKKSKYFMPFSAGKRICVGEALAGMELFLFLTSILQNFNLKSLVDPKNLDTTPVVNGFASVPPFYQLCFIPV
- protocol: CYP2C9 Vivid blue substrate O-dealkylation inhibition
- Format: biochemical
- condition_notes: insect cell microsomes expressing CYP2C9, 0.2M potassium phosphate buffer; mean of at least 3 determinations ± SD; read-out: IC50 ± SD 2C9
Decide using IC50 alone. Strictly below 30 µM: 1. Equal to or above 30 µM: 0.

Here's what some known entries look like.
molecule: c1ccc(Cn2cnc(-c3cccnc3)c2)cc1
target_system: CYP2C9 (Homo sapiens (Human), UniProt P11712)
answer_label: 1

molecule: c1cncc(-c2cccnc2)c1
target_system: CYP2C9 (Homo sapiens (Human), UniProt P11712)
answer_label: 0

molecule: ON=Cc1ccc(-c2cccnc2)o1 [Compound 37b]
target_system: CYP2C9 (Homo sapiens (Human), UniProt P11712)
answer_label: 0

molecule: c1cncc(-c2c[nH]cn2)c1
target_system: CYP2C9 (Homo sapiens (Human), UniProt P11712)
answer_label: 0

molecule: NCc1ccc(-c2cccnc2)o1 [Compound 39a, (5-(Pyridin-3-yl)furan-2-yl)methanamine]
target_system: CYP2C9 (Homo sapiens (Human), UniProt P11712)
answer_label: 1

Lab log: compare recorded IC50 with 30 µM; is it strictly lower for `Cc1cscc1-c1cccnc1` ?
0

Hello, I'm reviewing records and need to know if IC50 of ON=Cc1ccc(-c2cccnc2)o1 [Compound 37a] is below 30 µM. Could you check?
0

Lab log: compare recorded IC50 with 30 µM; is it strictly lower for `Cc1cscc1-c1ccc(F)nc1` ?
0

Is the reported IC50 for `Nc1ccc(-c2cccnc2)s1` strictly below 30 µM?
1
